biological target: protein kinase A, catalytic subunit; experiment: cell-based or functional assay
Where no end group is shown, it is not given here. Side-chain parts run from the residue outwards. [ ]: non-standard residue; d: D form. The star is where a group is joined. X1 = 5‑aminoethylsulfonamide isoquinoline, O=S(=O)(NCCN*)c1cccc2cnccc12; hLeu = CC(C)CC[C@H](N)C(=O)O; Nle = CCCC[C@H](N)C(=O)O; Orn = NCCC[C@H](N)C(=O)O; Dab = NCC[C@H](N)C(=O)O
Measured parameter: % inhibition of kinase activity at 1 µM; PKA-kinase Assay 1 (%)
Lab book: enter the figure in %, no units written.

- Binder: "RPR[Nle]E([Gly-X1])[Dab][hLeu] (not fully specified (C-terminus)) [TY-60020-58]"
  Meas value: 98

Qu. Fill in the blank: the reported % inhibition of kinase activity at 1 µM; PKA-kinase Assay 1 of RPR[Orn]E([Gly-X1])[Dab][hLeu] (not fully specified (C-terminus)) [TY-60020-42] is ____.
Ans. 99

Qu. Same question, RPR[Nle]E([Gly-X1])[Orn]F (not fully specified (C-terminus)) [TY-60020-59] this time
Ans. 92

Qu. Cool, now RPR[Orn]E(X1)[Orn]F (not fully specified (C-terminus)) [TY-60020-11]
Ans. 95
